B1: PHTF1 (parent)
chain: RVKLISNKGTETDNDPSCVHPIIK

# Variants of: B1
# Experiment: protein stability index of a GFP-peptide fusion (GPS, HEK-293T) (PSI 1-6); higher = more stable;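 further: lentivirally expressed fusions sorted by FACS into six bins by GFP to DsRed ratio, PSI derived from sequencing read proportions per bin multiplied by bin number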
# Condition Info: c terminus: a fixed tail appended
TRUE means recorded protein stability index is 4 or above; FALSE means it is below 4.

[[record]]
sequence_text = "NVKLISNKGTETDNDPSCVHPIIK [R1N]"
answer_label = "TRUE"

[[record]]
sequence_text = "RVKLISNKGTETDNDPSCVHPCIK [I22C]"
answer_label = "FALSE"

[[record]]
sequence_text = "RVKLISNKGTETDNDPSCHHPIIK [V19H]"
answer_label = "FALSE"

[[record]]
sequence_text = "RVKLISNKGTMTDNDPSCVHPIIK [E11M]"
answer_label = "FALSE"

[[record]]
sequence_text = "RVKLISNKGTETDNDPSCVHPIAK [I23A]"
answer_label = "TRUE"


# bool: protein stability index of RVKLISNKGTETDNDPSCVHPIII [K24I] >= 4
FALSE

# bool: protein stability index of RVKLISEKGTETDNDPSCVHPIIK [N7E] >= 4
TRUE

# bool: protein stability index of RVKLISNKGTETDNDPSCVGPIIK [H20G] >= 4
TRUE

# bool: protein stability index of RVKLWSNKGTETDNDPSCVHPIIK [I5W] >= 4
FALSE

# bool: protein stability index of RVKLISNKGTETDKDPSCVHPIIK [N14K] >= 4
FALSE

# bool: protein stability index of RVKLISNQGTETDNDPSCVHPIIK [K8Q] >= 4
TRUE

# bool: protein stability index of RVKLISNKGTETDNDPSCRHPIIK [V19R] >= 4
TRUE
